TARGET_OF_ASSAY: MTHFD1 recombinant human enzyme (Homo sapiens)
Sequence (P11586 2-291 limits assumed): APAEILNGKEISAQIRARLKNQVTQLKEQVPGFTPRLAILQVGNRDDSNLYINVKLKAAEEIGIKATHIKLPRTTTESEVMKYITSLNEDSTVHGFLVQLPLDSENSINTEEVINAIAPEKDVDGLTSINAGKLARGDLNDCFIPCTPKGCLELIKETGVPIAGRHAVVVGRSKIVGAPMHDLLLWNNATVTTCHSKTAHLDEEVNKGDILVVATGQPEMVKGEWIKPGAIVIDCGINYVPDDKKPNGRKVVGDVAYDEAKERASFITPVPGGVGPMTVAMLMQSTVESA
PROTOCOL_DESCRIPTION: MTHFD1 inhibition assay (NAD(P)H-Glo luminescence)
PROTOCOL_CONDITIONS: MTHFD1 IC50, recombinant human enzyme 200 nM, NADP, band
pIC50: −log10 of the molar value.
MEASUREMENT_TYPE: pIC50

Query block: Recorded pIC50 of COC[C@H]1CN(c2cc(Cl)c3c4c(c(=O)oc3c2C)CN(C(=O)c2cc(OC3CC3)c(C(=O)NS(=O)(=O)N3C5CCC3COC5)cc2F)CC4)CCN1C [Example 307] , please.
Result block: 5.30 to 6.00

Query block: Report pIC50 for CCOc1cc(C(=O)N2CCc3c(c(=O)oc4c(C)c(N5CCN(C)[C@@H](COC)C5)cc(C)c34)C2)c(F)cc1C(=O)NS(=O)(=O)N1C[C@@H]2C[C@H]1CO2 [Example 267] please.
Result block: 6.00 to 7.00

Query block: Can you look up the measured pIC50 of COC[C@H]1CN(c2cc(C)c3c4c(c(=O)oc3c2C)CN(C(=O)c2ccc(C(=O)NS(=O)(=O)C3(C)CC3)c(N3CCCC(F)(F)C3)c2F)CC4)CCN1C [Example 76] for me?
Result block: 7.00 to 8.00

Query block: Given the molecule COC[C@H]1CN(c2cc(Cl)c3c4c(c(=O)oc3c2C)CN(C(=O)c2cc(N(C)C)c(C(=O)NS(=O)(=O)N3CCC(C(F)(F)F)CC3)cc2F)CC4)CCN1C [Example 293] , what is its reported pIC50?
Result block: 6.00 to 7.00

Query block: Return reported pIC50; argument: COC[C@H]1CN(c2cc(C)c3c4c(c(=O)oc3c2C)CN(C(=O)c2ccc(C(=O)NS(=O)(=O)N3CCCC3)cc2Cl)CC4)CCN1C [Example 184]
Result block: 5.30 to 6.00

Query block: Record request: pIC50 value, item COC[C@H]1CN(c2cc(Cl)c3c4c(c(=O)oc3c2C)CN(C(=O)c2ccc(C(=O)NS(=O)(=O)N3C5CCC3CC5)c(OC)c2)CC4)CCN1C [Example 321]
Result block: 5.30 to 6.00

Query block: pIC50 lookup needed for COC[C@H]1CN(c2ccc3c4c(c(=O)oc3c2C)CN(C(=O)c2ccc(C(=O)NS(=O)(=O)N3[C@H](C)CC[C@H]3C)c(OC3CCC3)c2F)CC4)CCN1C [Example 177] , thanks.
Result block: 6.00 to 7.00

Query block: State the recorded pIC50 for this entry: COC[C@H]1CN(c2cc(C)c3c4c(c(=O)oc3c2C)CN(C(=O)c2ccc(C(=O)NS(=O)(=O)N3CCCC3)c(OC3C[C@@H]5C[C@@H]5C3)c2)CC4)CCN1C (mixture of isomers) [Example 109]
Result block: 7.00 to 8.00

Query block: Dear colleague, I am looking for the recorded pIC50 of the following molecule: COC[C@H]1CN(c2cc(C)c3c4c(c(=O)oc3c2C)CN(C(=O)c2ccc(C(=O)NS(=O)(=O)C3(C)CC3)c(OC3CCC(F)(F)CC3)c2F)CC4)CCN1C [Example 86]
Result block: 7.00 to 8.00

Query block: Report pIC50 for COC[C@H]1CN(c2cc(C)c3c4c(c(=O)oc3c2C)CN(C(=O)c2cc(Cl)c(C(=O)NS(=O)(=O)N(C)C)c(N3CC5CC5C3)c2)CC4)CCN1C (some centres unmarked) [Example 34] please.
Result block: 6.00 to 7.00

Query block: Param item = COC[C@H]1CN(c2cc(C)c3c4c(c(=O)oc3c2C)CN(C(=O)c2cc(C(=O)NS(=O)(=O)N3CCCC3)cc(OC3CCC3)c2F)CC4)CCN1C [Example 166] ; retrieve measured pIC50.
Result block: < 5.30

Origin of measurements: patent US12662489B2
